System: CCRF-CEM
Assay: Cytotoxicity against human CEM cells after 5 days
Format: ADME, cell-based
Conditions: 120 h
pIC50: −log10 of the molar value.
value-type: pIC50

COc1nc(NC2CC2)c2ncn([C@H]3C[C@H](N=[N+]=[N-])[C@@H](CO)O3)c2n1 = < 4.00
[N-]=[N+]=N[C@H]1C[C@H](n2cnc3c(N)nc(F)nc32)O[C@@H]1CO = 4.52
[N-]=[N+]=N[C@H]1C[C@H](n2cnc3c(NC4CC4)nc(N)nc32)O[C@@H]1CO = < 4.00
COc1nc(OC)c2ncn([C@H]3C[C@H](N=[N+]=[N-])[C@@H](CO)O3)c2n1 = < 4.00
COc1nc(F)nc2c1ncn2[C@H]1C[C@H](N=[N+]=[N-])[C@@H](CO)O1 = < 4.00
CC(C)(CO)Nc1nc(N)nc2c1ncn2[C@H]1C[C@H](N=[N+]=[N-])[C@@H](CO)O1 = < 4.00
COc1nc(Cl)nc2c1ncn2[C@H]1C[C@H](N=[N+]=[N-])[C@@H](CO)O1 = < 4.00
C=CCNc1nc(N)nc2c1ncn2[C@H]1C[C@H](N=[N+]=[N-])[C@@H](CO)O1 = < 4.00
[N-]=[N+]=N[C@H]1C[C@H](n2cnc3c(Cl)nc(F)nc32)O[C@@H]1CO = 4.88
C=CCN(C)c1nc(N)nc2c1ncn2[C@H]1C[C@H](N=[N+]=[N-])[C@@H](CO)O1 = 4.57
[N-]=[N+]=N[C@H]1C[C@H](n2cnc3c(NCCO)nc(N)nc32)O[C@@H]1CO = < 4.00
[N-]=[N+]=N[C@H]1C[C@H](n2ccc(=O)[nH]c2=O)O[C@@H]1CO [NAVURIDINE] = 4.16
CNc1nc(Cl)nc2c1ncn2[C@H]1C[C@H](N=[N+]=[N-])[C@@H](CO)O1 = < 4.00
[N-]=[N+]=N[C@H]1C[C@H](n2cnc3c(NC4CC4)nc(Cl)nc32)O[C@@H]1CO = < 4.00
CC(CO)Nc1nc(N)nc2c1ncn2[C@H]1C[C@H](N=[N+]=[N-])[C@@H](CO)O1 (some centres not stated) = < 4.00
[N-]=[N+]=N[C@H]1C[C@H](n2cnc3c(NCCCCCO)nc(N)nc32)O[C@@H]1CO = < 4.00
C=CCNc1ncnc2c1ncn2[C@H]1C[C@H](N=[N+]=[N-])[C@@H](CO)O1 = < 4.00
C#CCNc1nc(N)nc2c1ncn2[C@H]1C[C@H](N=[N+]=[N-])[C@@H](CO)O1 = < 4.00
COc1nc(N)c2ncn([C@H]3C[C@H](N=[N+]=[N-])[C@@H](CO)O3)c2n1 = < 4.00
CN(C)c1nc(N)nc2c1ncn2[C@H]1C[C@H](N=[N+]=[N-])[C@@H](CO)O1 = < 4.00
CN(C)c1nc(Cl)nc2c1ncn2[C@H]1C[C@H](N=[N+]=[N-])[C@@H](CO)O1 = < 4.00
[N-]=[N+]=N[C@H]1C[C@H](n2cnc3c(N)nc(Cl)nc32)O[C@@H]1CO = < 4.00
